Experiment: Determination of compound Cmax and AUC after oral gavage (plasma LC-MS/MS)
Format: in vivo, Sprague-Dawley rats
Conditions: Sprague-Dawley, rat, plasma, po, Structure (III) examples, Table 6, actual oral dose 8.9-10 mg/kg
Test Readout: Cmax (ng/mL)
Answer format: numeric, ng/mL implied, no suffix.

Give me measured Cmax, please, for this compound: CN(CCN1CCOCC1)C(=O)c1cccc(C(=O)Nc2ccc(N3CCCCC3)cc2C(=O)Nc2cnc(-c3ccccc3)nc2)c1 [Example 11]
70

---

Let's look at some molecules and their measured IC50.
Target: rat NaP2b (SLC34A2) (Rattus norvegicus)
Construct: host or cells: HEK293
Sequence (Q9JJ09 whole entry): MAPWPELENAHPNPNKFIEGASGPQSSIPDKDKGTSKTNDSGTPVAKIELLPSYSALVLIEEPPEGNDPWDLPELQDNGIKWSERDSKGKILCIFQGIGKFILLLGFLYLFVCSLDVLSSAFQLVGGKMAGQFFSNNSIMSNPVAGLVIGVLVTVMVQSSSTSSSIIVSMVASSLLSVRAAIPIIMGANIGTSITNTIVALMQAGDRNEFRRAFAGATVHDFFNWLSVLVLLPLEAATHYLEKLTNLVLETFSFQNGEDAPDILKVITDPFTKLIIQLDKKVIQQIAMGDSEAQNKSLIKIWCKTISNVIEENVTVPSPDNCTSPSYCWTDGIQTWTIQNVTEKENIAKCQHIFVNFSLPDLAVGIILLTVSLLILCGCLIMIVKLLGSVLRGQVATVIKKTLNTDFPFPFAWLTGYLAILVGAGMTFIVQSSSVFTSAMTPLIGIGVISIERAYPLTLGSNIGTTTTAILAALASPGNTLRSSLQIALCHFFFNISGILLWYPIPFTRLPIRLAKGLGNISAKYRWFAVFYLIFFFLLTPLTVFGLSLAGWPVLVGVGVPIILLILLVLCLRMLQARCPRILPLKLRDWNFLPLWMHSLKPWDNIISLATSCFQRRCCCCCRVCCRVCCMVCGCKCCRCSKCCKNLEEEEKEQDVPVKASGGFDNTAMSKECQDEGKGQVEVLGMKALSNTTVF
Assay: Inhibition of NaP2b-mediated Pi (33P) uptake in transfected HEK293 cells, rat NaP2b
Type: cell-based
Conditions: 33P Pi uptake, 0.1 mM phosphate, value given as pIC50 range

Give me measured IC50, please, for this molecule: CCN(CC)c1ccc(NC(=O)c2cccc(C(=O)N(C)CCN(C)CCOCCOCCOCCNC(=O)c3ccc(O)cc3)c2)c(-c2cc(C(=O)N[C@H]3CCCc4ccccc43)ccn2)c1
1 to 7.94 µM

Next:
Give me measured IC50, please, for this molecule: O=C(O)CCSCc1cccc(C(=O)Nc2ccc(N3CCCCC3)cc2-c2cc(NCc3ccc(Cl)c(C(F)(F)F)c3)ncn2)c1
1 to 7.94 µM

Give me measured IC50, please, for this molecule: CN(CCN1CCOCC1)C(=O)c1cccc(C(=O)Nc2ccc(N3CCCCC3)cc2-c2cc(C(F)(F)CCc3cccc(C(F)(F)F)c3)ccn2)c1
10 to 31.6 µM
